Hey, just so you know, these numbers are from paper PMC9597602.

Tested on: human red blood cells
Format: cell-based
Details: initial CO-ADD screening, 1 h; 10% hemolysis
Measured Endpoint: RBC HC10

The examples below pair each entry with its known result.
Smiles String | Assayed System | RBC HC10
c1ccc([PH]([Au][S]c2ccccn2)(c2ccccc2)c2ccccc2)cc1 | human red blood cells | >32 µg/mL
C1=CCCC=CCC1.[Cl][Pd][Cl] | human red blood cells | >20 µM

Next item in the queue.
Query :: RBC HC10 for Cc1c(C)c(-c2ccc(-c3ccccc3)cc2)[c-](C)c1C.Cc1ccccc1NC1=[NH+][Ir]([Cl])[NH]C(NS(=O)(=O)c2cccc3c(N(C)C)cccc23)=N1 ?
Result :: >32 µg/mL
